B1: POU domain, class 4, transcription factor 1, residues 266 to 347; numbered along this chain, Q01851 (parent)
chain: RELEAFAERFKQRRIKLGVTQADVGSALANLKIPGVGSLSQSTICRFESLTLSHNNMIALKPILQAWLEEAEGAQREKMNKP

Variants of: B1
Test: abundance fitness (aPCA) (normalised: wild type 0, dead -1); higher = more abundant; growth selection in yeast, the domain comes from the species named
Conditions: Homo sapiens
Parameter threshold = -0.1. Response is Criterion met when abundance fitness meets or exceeds it, else Criterion not met.

RELEAFAERFKQRRIKLGVTQADVGSALANLCIPGVGSLSQSTICRFESLTLSHNNMIALKPILQAWLEEAEGAQREKMNKP [K32C] | Criterion not met
RELEAFAERFKQRRIKLGVTQADVGSALANLKIPGVGSPSQSTICRFESLTLSHNNMIALKPILQAWLEEAEGAQREKMNKP [L39P] | Criterion met
RELEAFAERFKQRRIKLGVTQADVGSALANLKIPGVGSLSQSTICPFESLTLSHNNMIALKPILQAWLEEAEGAQREKMNKP [R46P] | Criterion not met
RELEAFAERFKQRRIKLGVTQADVGSALANLKIPGVGSLSQSTICRFESLTLSHNNMIALKPILQAWLEEAEGAQRDKMNKP [E77D] | Criterion met
RELEAFAERFKQRRIKLGVTQADVGSALANLKIPGVGSLSQSTICRFEELTLSHNNMIALKPILQAWLEEAEGAQREKMNKP [S49E] | Criterion met

Tell me whether abundance fitness is at least -0.1 here: RELEAFAEWFKQRRIKLGVTQADVGSALANLKIPGVGSLSQSTICRFESLTLSHNNMIALKPILQAWLEEAEGAQREKMNKP [R9W]
Criterion not met

Tell me whether abundance fitness is at least -0.1 here: RELEAFAERFKQRRIKLGVTQADVGSALANLKIPGVGSMSQSTICRFESLTLSHNNMIALKPILQAWLEEAEGAQREKMNKP [L39M]
Criterion met

Tell me whether abundance fitness is at least -0.1 here: RELEAFAERFKQRRIKLGVTQADVGSALANLKIPGVGSLSQSTICRFESLTLSHNNMIALKPILQAWLEEATGAQREKMNKP [E72T]
Criterion not met

Tell me whether abundance fitness is at least -0.1 here: RELEAFAERFKQRRIKLGVTQADVGSALANLKIPGVGSLSQSTICRFESLTLSHNNMIALKPILQAWLEEAEGMQREKMNKP [A74M]
Criterion met

Tell me whether abundance fitness is at least -0.1 here: RELEAFAERFKQRRIKLGVTQADVGSALANLKIPGVGSLSQSTICRFESLTLFHNNMIALKPILQAWLEEAEGAQREKMNKP [S53F]
Criterion not met

Provenance of the data: the Human Domainome abundance scans (Beltran et al. 2025)
